- Test system: AD38 cells
- ASSAY: Viability of AD38 cells (Promega CellTiter-Glo)
- Format: cell-based
- SETTINGS: 10 μM compound, 6 days, CellTiter-Glo luminescence normalized to DMSO control (100%)
PARAMETER MEASURED: AD38 Viability Normalized Result (cmpd/DMSO %) at 10 μM
Respond with the figure and its unit, in that order.

Cc1c(C(=O)NCc2cnc(C(F)(F)F)s2)ccc2c1NC(=O)c1ccccc1S2(=O)=O
94%
COc1ccc(-c2ncc(CNC(=O)c3ccc4c(c3)NC(=O)c3ccccc3O4)s2)cn1
93%
CC(C)(C)OC(=O)N1CCN(c2ccc(-c3ncc(CNC(=O)c4ccc5c(c4)NC(=O)c4ccccc4S5(=O)=O)s3)cn2)CC1
95%
Nc1ccc(-c2ncc(CNC(=O)c3ccc4c(c3)NC(=O)c3ccccc3S4(=O)=O)s2)cn1
101%
O=C(NCc1cnc(N2CCS(=O)(=O)CC2)s1)c1ccc2c(c1)NC(=O)c1ccccc1O2
98%

Could you report AD38 Viability Normalized Result (cmpd/DMSO %) at 10 μM for every entry in the following list?
1. O=C(NCc1cnc(-c2ccc(OCCCN(CCO)CCO)cc2)s1)c1ccc2c(c1)NC(=O)c1ccccc1S2(=O)=O
2. N#Cc1cccc(-c2ncc(CNC(=O)c3ccc4c(c3)NC(=O)c3ccccc3S4(=O)=O)s2)c1
3. CN(C)CCOc1ncc(CNC(=O)c2ccc3c(c2)NC(=O)c2ccccc2O3)s1

stdout:
99%
103%
98%

----------
- Test system: AD38 cells
- ASSAY: Viability of AD38 cells (Promega CellTiter-Glo)
- Type: cell-based
- SETTINGS: 10 μM compound, 6 days, CellTiter-Glo luminescence normalized to DMSO control (100%)
PARAMETER MEASURED: AD38 Viability Normalized Result (cmpd/DMSO %) at 10 μM
Numbers only, in %.

Worked cases, answers included:
CN(C)CCSc1ncc(CNC(=O)c2ccc3c(c2)NC(=O)c2ccccc2S3(=O)=O)s1 [compound 1590]
95
CN(C)CCCCc1ccc(-c2ncc(CNC(=O)c3ccc4c(c3)NC(=O)c3ccccc3S4(=O)=O)s2)cc1 [compound 11005]
102

Would you mind listing AD38 Viability Normalized Result (cmpd/DMSO %) at 10 μM for each of the following molecules?
1. CN(C)CCOc1ccc(-c2ncc(CNC(=O)c3ccc4c(c3)NC(=O)c3ccccc3S4)s2)cc1 [compound 1608]
2. O=C(NCc1cnc(-c2ccc3ncccc3c2)s1)c1ccc2c(c1)NC(=O)c1ccccc1O2 [compound 1831]

stdout:
[98, 112]

----------
- Test system: AD38 cells
- ASSAY: Viability of AD38 cells (Promega CellTiter-Glo)
- Type: cell-based
- SETTINGS: 10 μM compound, 6 days, CellTiter-Glo luminescence normalized to DMSO control (100%)
For each entry below, report its AD38 Viability Normalized Result (cmpd/DMSO %) at 10 μM value.
One number for each entry, in %.

Please review the following examples before continuing.
O=C(NCc1cnc(C(F)(F)F)s1)c1cc2c(cc1Cl)S(=O)(=O)c1ccccc1C(=O)N2 [compound 1934]
69
O=C(NCc1cnc(OCCOC2CCCCO2)s1)c1ccc2c(c1)NC(=O)c1ccccc1O2 (stereo not drawn) [1613-A]
95
Cl.O=C(NCc1cnc(-c2ccc(OC[C@H]3CCCN3)cc2)s1)c1ccc2c(c1)NC(=O)c1ccccc1S2(=O)=O [compound 11104]
97

Please report AD38 Viability Normalized Result (cmpd/DMSO %) at 10 μM for every entry that follows.
1. O=C(NCc1cnc(-c2ccc(-c3nccs3)cc2)s1)c1ccc2c(c1)NC(=O)c1ccccc1S2(=O)=O [compound 1954]
2. CC(=O)NCCCOc1ccc(-c2ncc(CNC(=O)c3ccc4c(c3)NC(=O)c3ccccc3S4(=O)=O)s2)cc1 [compound 1991]
3. N#Cc1ccc(-c2ncc(CNC(=O)c3ccc4c(c3)NC(=O)c3ccccc3O4)s2)c(F)c1 [compound 1826]
4. CC(C)(C)OC(=O)NCCNC(=O)c1ccc(-c2ncc(CNC(=O)c3ccc4c(c3)NC(=O)c3ccccc3S4(=O)=O)s2)cc1 [11017-A]
5. Cc1c(C(=O)NCc2cnc(-c3cc[nH]n3)s2)ccc2c1NC(=O)c1ccccc1S2(=O)=O [compound 11152]
6. COc1ccc(-c2ncc(CNC(=O)c3ccc4c(c3)NC(=O)c3ccccc3O4)s2)cc1 [compound 1619]
7. Cc1cc2c(cc1C(=O)NCc1cnc(-c3ccc(C#N)cc3)s1)NC(=O)c1ccccc1S2(=O)=O [compound 1911]
8. O=C(NCc1cnc(-c2cc(F)c(O)c(F)c2)s1)c1ccc2c(c1)NC(=O)c1ccccc1S2(=O)=O [compound 1665]

stdout:
1: 106; 2: 98; 3: 91; 4: 102; 5: 96; 6: 95; 7: 111; 8: 90

Value sought for every listed molecule: AD38 Viability Normalized Result (cmpd/DMSO %) at 10 μM.
1. O=C(NCc1cnc(-n2nccn2)s1)c1ccc2c(c1)NC(=O)c1ccccc1S2(=O)=O [compound 11048]
2. N#Cc1ccc(-c2ncc(CNC(=O)c3cc4c(cc3Cl)S(=O)(=O)c3ccccc3C(=O)N4)s2)cc1 [compound 1935]
3. CCN(CC)CC(O)COc1ccc(-c2ncc(CNC(=O)c3ccc4c(c3)NC(=O)c3ccccc3S4(=O)=O)s2)cc1 (stereo not drawn) [compound 11086]
4. CC(C)(C)OC(=O)NCCCS(=O)(=O)c1ccc(-c2ncc(CNC(=O)c3ccc4c(c3)NC(=O)c3ccccc3S4(=O)=O)s2)cc1 [11032-A]

stdout:
1: 103; 2: 112; 3: 88; 4: 110

----------
- Tested on: AD38 cells
- ASSAY: Viability of AD38 cells (Promega CellTiter-Glo)
- Format: cell-based
- SETTINGS: 10 μM compound, 6 days, CellTiter-Glo luminescence normalized to DMSO control (100%)
PARAMETER MEASURED: AD38 Viability Normalized Result (cmpd/DMSO %) at 10 μM

Here are 3 compounds together with their reported answers.
O=C(NCc1cnc(-c2ccc(O)c(Cl)c2)s1)c1ccc2c(c1)NC(=O)c1ccccc1S2(=O)=O [compound 1667]
93%
O=C(NCc1cnc(-c2ccc(O)cc2Cl)s1)c1ccc2c(c1)NC(=O)c1ccccc1O2 [compound 1703]
93%
Cc1c(C(=O)NCc2cnc(-c3ccc(OCCCN(C)C)cc3)s2)ccc2c1NC(=O)c1ccccc1S2(=O)=O [C38-01]
99%

stdin: Quick one: give measured AD38 Viability Normalized Result (cmpd/DMSO %) at 10 μM for O=C(NCc1cnc(-c2ccc(CCCCN3CCCCC3)cc2)s1)c1ccc2c(c1)NC(=O)c1ccccc1S2(=O)=O [compound 11055]
stdout: 94%

----------
- Test system: AD38 cells
- ASSAY: Viability of AD38 cells (Promega CellTiter-Glo)
- Assay type: cell-based
- SETTINGS: 10 μM compound, 6 days, CellTiter-Glo luminescence normalized to DMSO control (100%)
PARAMETER MEASURED: AD38 Viability Normalized Result (cmpd/DMSO %) at 10 μM
One number for each entry, in %.

For orientation, consider the following solved cases.
N#Cc1ccc(-c2ncc(CNC(=O)c3cc4c(cc3Cl)Oc3ccccc3C(=O)N4)s2)cc1
111
O=C(NCc1cnc(-c2ccc(O)cc2)s1)c1ccc2c(c1)NC(=O)c1cc(Cl)ccc1S2
94

Please supply AD38 Viability Normalized Result (cmpd/DMSO %) at 10 μM for each of the following items, keeping them in order.
1. O=C(NCc1cnc(-c2ccc(O)cc2)s1)c1ccc2c(c1)NC(=O)c1ccccc1S2
2. O=C(NCc1cnc(-c2ccc(O)cc2)s1)c1ccc2c(c1)NC(=O)c1ccccc1S2(=O)=O
3. O=C(O)c1ccc(-c2ncc(CNC(=O)c3ccc4c(c3)NC(=O)c3ccccc3S4)s2)cc1
4. C=CCN1c2ccc(C(=O)NCc3cnc(C(F)(F)F)s3)cc2NC(=O)c2ccccc21

stdout:
1: 96; 2: 109; 3: 61; 4: 85

----------
- Test system: AD38 cells
- ASSAY: Viability of AD38 cells (Promega CellTiter-Glo)
- Format: cell-based
- SETTINGS: 10 μM compound, 6 days, CellTiter-Glo luminescence normalized to DMSO control (100%)
PARAMETER MEASURED: AD38 Viability Normalized Result (cmpd/DMSO %) at 10 μM
One number for each entry, in %.

Cc1ncc(CNC(=O)c2ccc3c(c2)NC(=O)c2ccccc2O3)s1 [compound 1557]
98
COc1ccc(-c2ncc(CNC(=O)c3ccc4c(c3)NC(=O)c3ccccc3S4(=O)=O)s2)nc1 [1879-A]
121
O=C(NCc1cnc(-c2ccc(O)cc2)s1)c1cc2c(cc1F)Sc1ccccc1C(=O)N2 [compound 1749]
109
O=C(NCc1cnc(-c2ccncc2)s1)c1ccc2c(c1)NC(=O)c1ccccc1S2(=O)=O [compound 1625]
96
Cl.O=C(NCc1cnc(-c2ccc(OC[C@H]3CCNC3)cc2)s1)c1ccc2c(c1)NC(=O)c1ccccc1S2(=O)=O [compound 11139]
104
CC(C)c1ncc(CNC(=O)c2ccc3c(c2)NC(=O)c2ccccc2O3)s1 [compound 1559]
87
CN(C)CCCOc1ncc(CNC(=O)c2ccc3c(c2)NC(=O)c2ccccc2O3)s1 [compound 1691]
89

stdin: Indicate the recorded AD38 Viability Normalized Result (cmpd/DMSO %) at 10 μM value for this molecule: Cl.O=C(NCc1cnc(-c2ccc(OCCC3CCCN3)cc2)s1)c1ccc2c(c1)NC(=O)c1ccccc1S2(=O)=O (centres unmarked) [compound 1996]
stdout: 100

Reference source: patent US11814376B2
